Tested on: SUDHL10 cells
ASSAY TEXT: Induction of cytotoxicity (CellTiter-Glo, 5 h), SUDHL10
STUDY CONDITIONS: read-out: Cytotox SUDHL10 [M] (median); IC50, median; SUDHL10, 5 h; listed as 098
ATTRIBUTE MEASURED: IC50 (M)

1. CCc1c2c(nn1C)COCCC(F)(F)Cn1c(C(=O)O)c(CCCOc3cccc4cc(F)ccc34)c3ccc(Cl)c-2c31 (single isomer, unassigned) ... 6.3e-06

====

System: KYSE-180 cells
ASSAY TEXT: Antiproliferation assay (CellTiter-Glo, 72 h), KYSE-180
Type: cell-based
STUDY CONDITIONS: IC50, median; KYSE-180, 72 h; read-out: Antiproli KYSE-180 [M] median
ATTRIBUTE MEASURED: IC50 (M)

1. Cc1c2c(nn1C)CN(C)CCCCn1c(C(=O)O)c(CCCOc3cccc4ccccc34)c3ccc(Cl)c-2c31 (single isomer, unassigned; enantiomer 1) ... 3.79e-06

Every entry's value here was drawn from patent US11478451B1.
